target: S1-Ig (12-510) (SARS-CoV; human, UniProt P59594 12-510); assay: ELISA, coated S1-IgG 12-510
# Reactivity S1-IgG (ELISA OD) per record follows
Answer with a number only, understood to be in OD.

Guide cases for Reactivity S1-IgG (ELISA OD), answers given:
5E4 (antibody, V domains shown) VH: QVHLVQSGAEVKKPGASVKVSCKASGYTFTGYYVHWVRQAPGQGLEWMGWINPNSGGTNYAQKFQGRVTMTRDTSISTAYMELSRLRSDDTAVYFCAGGRYLDYWGQGTLVTVSS VL: DIQMTQSPSSLSASVGDRVTITCRASQGIRNDLGWYQQKPGKAPKRLIYAASSLQSGVPSRFSGSGSGTEFTLTISSLQPEDFATYYCLQYNSYPITFGQGTRLEIK: 1.2
3C7 (antibody, V domains shown) VH: QVQLVESGGGVVQPGTSLRLSCAASGFTFSSYGIHWVRQAPGKGLEWVAVIWYDGSNKFYADSVKGRFTISRDNSKNTLYLQMNSLRAEDTAVYYCARDPLGYCSSTSCSYFDYWGQGTLVTVSS VL: DIQMTQSPSSVSASVGDRVTITCRASQGISNWLAWYQQKPGKAPKLLIYAASSLQSGVPSRFSGSGSGTDFTLTIRSLQPEDFATYYCQQANNFPLTFGGGTKVEIK: 1.42

Turning now to a further binder:
Task: Complete the entry with Reactivity S1-IgG (ELISA OD) for 3H12 (antibody, V domains shown) VH: QVQLQESGPGLVKPSETLSLTCTVSDGSISSFYWSWIRQPPGKGLEWIGYIYYSGSTNYNPSLKSRVTISVDTSKNQFSLKLSSVTAADTAVYYCARDYDILTGYSNYYGMDVWGQGTTVTVSS VL: DIQMTQSPSSLSASVGDRVTITCRASQGIRNDLGWYQQKPGKAPKRLIYAASSLQSGVPSRFSGSGSGTEFTLTISSLQPEDFATYYCLQHNSYPFTFGPGTKLDIK
Result: 0.318
